tested_target: SARS-CoV-2 spike RBD, wild type (SARS-CoV-2 (wild type), UniProt P0DTC2 319-541)
assay: competition with ACE2-coated beads, flow cytometry; 10% FBS, 37 C; SPR: PBS + 5 mM MgCl2, 300 mM NaCl, 400 nM BLib, 2 ug/mL salmon sperm DNA, 25 C; flow cytometry in binding buffer, RT; neutralization in 10% FBS, 37 C; cross-linking in PBS pH 7.4 (SI: HEPES), RT
assay_conditions: protein: commercial
reported_property: IC50

So for ATTACCGATGGCTTGTTTGTAATGTAGGGTTCCGTCGGAT (ssDNA, 5' NH2 conjugated to disuccinimidyl suberate (NHS ester)) [NHS-RApt (CRApt)] , the logged IC50 turned out to be 0.42 nM

Sourced from paper PMC9881204
